Assay: Solubility test of sulfate (Crystalline form III) in various solvents
Format: physicochemical
Conditions: organic solvent or mixture, thermodynamic from solid; Toluene, 25° C.; read-out: Solubility
Method: First, solvent screening was performed for a study on various crystalline forms.
endpoint.name: solubility

compound: O=S1(=O)CCN(Cc2cc(NC3CCOCC3)c3[nH]c(-c4ccccc4)cc3c2)CC1 [Sulfate]
endpoint.name: solubility
result: < 2000 µg/mL

====

test: Solubility test of sulfate (Crystalline form III) in various solvents; type: physicochemical; conditions: organic solvent or mixture, thermodynamic from solid; DMSO, 25° C.; read-out: Solubility

compound: O=S1(=O)CCN(Cc2cc(NC3CCOCC3)c3[nH]c(-c4ccccc4)cc3c2)CC1 [Sulfate]
solubility: 158 to 210 mg/mL
